Tested on: NCI-H322M lung
PROTOCOL NOTES: NCI-60 one-dose screen, 48 h
RUN PARAMETERS: 10 µM unless noted
The panel holds about 83,000 compounds, 20% with a hit somewhere; the sample as a whole holds those more often. The source made the active and inactive calls. Rule for the calls: active = growth percent below 10; inactive = the rest.
Classes to choose from: true = active, false = inactive

Worked examples, 3 compounds total:
[
  {
    "COMPOUND": "CCOC(=O)[C@@H](C)C[C@H](Cc1ccccc1)NC(=O)c1csc([C@@H](C[C@H](C(C)C)N(C)C(=O)[C@H](CCC(C)C)NC(=O)[C@H]2CCCCN2C)OC(C)=O)n1",
    "CATEGORY": "false"
  },
  {
    "COMPOUND": "C[C@]12C[C@@H](CO)[C@H](O)C[C@@H]1CC[C@@H]1[C@@H]2CC[C@]2(C)[C@@H](O)CC[C@@H]12",
    "CATEGORY": "false"
  },
  {
    "COMPOUND": "CCOC(=O)N1CC1",
    "CATEGORY": "false"
  }
]

Ask: I'd appreciate the recorded outcome for "C#Cc1ccc2c(c1)C(c1ccccc1F)=NCC(=O)N2C" from this test.
Reply: false

Ask: I'd appreciate the recorded outcome for "CC(=O)O[C@H]1CC[C@@]2(C)C(=CC[C@H]3[C@@H]4C[C@@H](N5CC5)[C@H](C(C)=O)[C@@]4(C)CC[C@@H]32)C1" from this test.
Reply: false

Ask: I'd appreciate the recorded outcome for "CCCC[C@H](NC(=O)[C@H]1CCCN1C)C(=O)N(C)[C@H](C[C@@H](OC(C)=O)c1nc(C(=O)N[C@@H](Cc2ccccc2)C[C@H](C)C(=O)OCC)cs1)C(C)C" from this test.
Reply: false

Ask: I'd appreciate the recorded outcome for "Oc1c(CCl)cc(Cl)cc1CCl" from this test.
Reply: false

Ask: I'd appreciate the recorded outcome for "CCCC[C@H](NC(=O)[C@H]1CCCCN1C)C(=O)N(C)[C@H](C[C@@H](OC(C)=O)c1nc(C(=O)N[C@@H](Cc2ccccc2)C[C@H](C)C(=O)OCC)cs1)C(C)C" from this test.
Reply: false

Ask: I'd appreciate the recorded outcome for CC12CCC3C(CCC4=CC(=O)CCC43CF)C1CCC2=O (configuration not stated) from this test.
Reply: false

Ask: I'd appreciate the recorded outcome for "Cc1ccc(S(=O)(=O)F)cc1C(=O)O" from this test.
Reply: false

Ask: I'd appreciate the recorded outcome for "Cc1c2cc(Cl)c3ccccc3c2c[n+]2ccccc12" from this test.
Reply: false

Ask: I'd appreciate the recorded outcome for "C=CC[PH+](c1ccccc1)c1ccccc1.C=CC[PH+](c1ccccc1)c1ccccc1.[Cl][Pt][Cl]" from this test.
Reply: false

Ask: I'd appreciate the recorded outcome for CCCCCCCCCCCCNC(c1ccccc1)C(O)c1ccccc1 (configuration not stated) from this test.
Reply: false

* * *

Tested on: OVCAR-3 ovarian
PROTOCOL NOTES: NCI-60 one-dose screen, 48 h (100 = growth as untreated, 0 = no growth, -100 = all killed)
RUN PARAMETERS: 10 µM unless noted
This is part of a sample that, as a whole, favours compounds with a hit. Of some 83,000 tested, about 20% had one in any assay.
So I've got a bunch of compounds here, and I need their growth values.
One number for each entry, in %.

[
  {
    "COMPOUND": "CC1CCCC(C[N+](C)(C)C)C1=O (configuration not stated)",
    "growth (%)": 121
  },
  {
    "COMPOUND": "CC(=O)O[C@H]1CC[C@H]2[C@@H]3CC=C4c5nc(-c6ccccc6)sc5CC[C@]4(C)[C@H]3CC[C@]12C",
    "growth (%)": 92.9
  },
  {
    "COMPOUND": "Fc1ccc(C2=CCNCC2)cc1",
    "growth (%)": 102
  }
]

Can you give me growth for all of these, one by one?
1. CC(=O)OC1CCC2(C)C(CCC3C2CC(=O)C2(C)C3CC(Sc3ccc(N(CCCl)CCCl)cc3)C2C(C)=O)C1 (configuration not stated)
2. Cc1cnc(/C=C/C(=O)O)cc1-c1cc2c(cc1C)C(C)(C)CCC2(C)C
3. CCn1nccc1NC(=O)C(=O)c1cn(Cc2ccc(F)cc2)c2cccc(OC)c12
4. CCCCCN(CCCCC)CC(O)c1cc(Cl)ccc1OC (configuration not stated)
5. CCCC(=O)O[C@@H]1C[C@H]2C[C@@H](O[C@@H]3O[C@@H](C)[C@@H](O)[C@@H](O)[C@H]3OC)C[C@@H](C[C@@H](C)/C=C/C=C\C[C@@H]3O[C@@H](C[C@@H]3C)[C@@H](O)C[C@H]3C[C@@]1(O)C(=O)O3)O2
6. O=NNc1ccccn1
7. COc1cc(C=Nc2cc(Cl)cc(Cl)c2)ccc1N(CCCl)CCCl
8. CCOC(=O)CCN(C)C1=Nc2ccc(Cl)cc2C(c2ccccc2)=[N+]([O-])C1

Reply:
[99.6, 57.8, 94, 28.6, 59.8, 112, 91.1, 110]

Can you give me growth for all of these, one by one?
1. O=C1C2CCC1C(N1CCCC1)CC2 (configuration not stated)
2. C=CCn1cc(C=C2C(=O)N(C)C(=O)N(C)C2=O)c2ccccc21
3. CCCCCCCC[N+](C)(CCCCCCCC)CCCCCCCC

Reply:
1. 106
2. 96.1
3. -100

Can you give me growth for all of these, one by one?
1. O=C(N/N=C\c1ccc(N(CCCl)CCCl)cc1)c1cccc([N+](=O)[O-])c1
2. C=COC(=O)CCN1CC1
3. COC(=O)C12CC(NC(=O)c3csc([C@@H](C[C@H](C(C)C)N(C)C(=O)[C@@H](NC(=O)[C@H]4CCCCN4C)C(C)C)OC(C)=O)n3)(C1)C2
4. CN1C(=O)N[C@H]2[C@@H]3NC(=O)c4ccc(Br)n4[C@@H]3C[C@]21O

Reply:
1. 83.2
2. 112
3. -17.5
4. -28.7

Can you give me growth for all of these, one by one?
1. CC[C@@H]1[C@@H](C)O[C@@](O)([C@@H](C)[C@H](O)[C@H](C)[C@H]2OC(=O)/C=C/C=C/[C@H](C)[C@@H]([C@@H](C)[C@@H](O)[C@H](C)[C@@]3(O)C[C@@H](O[C@H]4C[C@@H](O)[C@H](O)C(C)O4)[C@H](CC)[C@@H](C)O3)OC(=O)/C=C/C=C/[C@@H]2C)C[C@H]1O[C@@H]1C[C@@H](O)[C@H](O)C(C)O1 (some centres not stated)
2. Brc1ccc2c(c1)c(-c1nc(-c3c[nH]c4ncccc34)cs1)cn2CCN1CCOCC1
3. Cc1cc(N(CCCl)CCCl)ccc1C=Nc1cccnc1
4. C=CC1=C[C@@H]2[C@@H]3O[C@]4(CC[C@H](O4)[C@@H](C)C[C@@H](O)C3=O)C[C@H](O)C3=NCC[C@@]32CC1
5. COC(=O)[C@@H](C)C[C@H](Cc1ccccc1)NC(=O)c1nc([C@@H](C[C@H](C(C)C)N(C)C(=O)[C@@H](NC(=O)[C@H]2CCCCN2C)C(C)C)OC(C)=O)sc1C(C)C
6. C[C@@H]1O[C@@H](O[C@H]2C[C@@H](O)[C@]3(CO)C4C(CC[C@]3(O)C2)[C@@]2(O)CC[C@H](C3=CC(=O)OC3)[C@@]2(C)C[C@H]4O)[C@H](O)[C@H](O)[C@H]1O (some centres not stated)
7. COc1cccc2c1c(C(=O)C(=O)Nc1ccn[nH]1)cn2Cc1ccc(F)cc1
8. CC[C@H](C)[C@@H]1OC(=O)C(C)(C)[C@H](O)[C@H](Cc2ccccc2)OC(=O)[C@H](C(C)C)OC(=O)[C@@H](NC(=O)c2cccc(NC=O)c2O)[C@@H](C)OC1=O

Reply:
1. -98
2. 72.9
3. 87.5
4. -30.7
5. -22.9
6. -96.2
7. 106
8. 48.2

* * *

Tested on: HL-60(TB) leukemia
PROTOCOL NOTES: NCI-60 one-dose screen, 48 h
RUN PARAMETERS: 10 µM unless noted
The panel holds about 83,000 compounds, 20% with a hit somewhere; the sample as a whole holds those more often. Calls of active or inactive are those of the source. Rule for the calls: active = growth percent below 10; inactive = the rest.
Classes to choose from: active, inactive

Worked examples, 4 compounds total:
[
  {
    "COMPOUND": "CCCCCN(CCCCC)CC(O)c1cc(Cl)ccc1OC (configuration not stated)",
    "CATEGORY": "inactive"
  },
  {
    "COMPOUND": "CC(=O)OC1C(OC/C2=C/C3[C@@H](C(C)C)CC=C(C)[C@@H]3CC(OC(=O)/C=C/c3cn(C)cn3)[C@]3(C)C=C[C@@]2(O)O3)OCC(O)C1O (some centres not stated)",
    "CATEGORY": "active"
  },
  {
    "COMPOUND": "COc1ccc(C/C(C)=C(\\c2ccc(OCCN3CCOCC3)cc2)c2ccc(OC(=O)Cc3ccccc3)cc2)cc1",
    "CATEGORY": "active"
  },
  {
    "COMPOUND": "O=C(CC1(O)C(=O)Nc2ccc(Cl)cc21)c1ccc(C(=O)NCC2CCC3(CC2)OOC2(CCCCC2)OO3)cc1 (configuration not stated)",
    "CATEGORY": "active"
  }
]

Ask: I'd appreciate the recorded outcome for "COc1cc(/C=C/[N+](=O)[O-])c([N+](=O)[O-])cc1OC" from this test.
Reply: active

Ask: I'd appreciate the recorded outcome for ClCCN(CCCl)c1nc(Cl)c(C2CC(c3ccccc3)=NN2c2cc(Cl)cc(Cl)c2)s1 (configuration not stated) from this test.
Reply: inactive
